system: T-47D breast; assay: NCI tumour cell line growth inhibition, 48 h
Catalogue of TGI readings, one per entry.
measurement_type: TGI

molecular_string	target	measurement_type	result
O=C1c2ccccc2C(=O)N1/N=C1/SC(=Nc2ccccc2)C(=Nc2ccccc2)N1c1ccccc1	T-47D breast	TGI	> 100 µM
Cc1ccc(S(=O)(=O)NNC(=O)Nc2cccc(C(F)(F)F)c2)cc1	T-47D breast	TGI	> 100 µM
O=C(CCCc1ccc(N(CCCl)CCCl)cc1)NCc1ccccc1	T-47D breast	TGI	87.1 µM
CN1C(=O)C(c2c[nH]c3ccccc23)=C(c2c[nH]c3ccccc23)C1=O	T-47D breast	TGI	> 25 µM
C/C(=N/NC(=O)c1ccncc1)C(F)(F)F	T-47D breast	TGI	> 100 µM
